Known EC50 of a selection of compounds
Biological target: mMC1R (Mus musculus, UniProt Q01727)
Sequence (Q01727 whole entry): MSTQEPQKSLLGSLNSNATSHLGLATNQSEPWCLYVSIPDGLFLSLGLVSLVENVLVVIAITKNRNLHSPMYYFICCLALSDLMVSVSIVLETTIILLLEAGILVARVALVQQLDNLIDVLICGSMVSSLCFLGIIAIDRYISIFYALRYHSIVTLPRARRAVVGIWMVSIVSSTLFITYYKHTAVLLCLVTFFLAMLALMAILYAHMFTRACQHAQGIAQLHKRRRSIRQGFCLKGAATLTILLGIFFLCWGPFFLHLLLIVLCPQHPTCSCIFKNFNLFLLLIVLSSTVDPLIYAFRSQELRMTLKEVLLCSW
Experiment: AlphaScreen cAMP assay, agonist pharmacology in HEK293 cells stably expressing mMC1R
Settings: AlphaScreen cAMP, HEK293; mean ± SEM, at least three experiments
Non-standard residues stand in square brackets, D forms with d. Residues, ends and D or L forms follow the SMILES beside them. dPhe(4-CF3) = N[C@H](Cc1ccc(C(F)(F)F)cc1)C(=O)O; dPhe(4-CN) = N#Cc1ccc(C[C@@H](N)C(=O)O)cc1; dPhe(4-Me) = Cc1ccc(C[C@@H](N)C(=O)O)cc1; Tic = O=C(O)[C@@H]1Cc2ccccc2CN1
The answer is to be given in nM; state only the numeric part.

Example cases with answers are listed next.
CC(=O)N[C@@H](Cc1c[nH]cn1)C(=O)N[C@@H](CCCNC(=N)N)C(=O)N[C@H](Cc1ccc(C#N)cc1)C(=O)N1Cc2ccccc2C[C@H]1C(N)=O [KNS2-23-8, Ac-His-Arg-(pCN)DPhe-Tic-NH2] (Ac-HR[dPhe(4-CN)][Tic]-NH2): 27
CC(=O)N[C@@H](Cc1c[nH]cn1)C(=O)N[C@@H](CCCNC(=N)N)C(=O)N[C@H](Cc1ccc(C(F)(F)F)cc1)C(=O)N1Cc2ccccc2C[C@H]1C(N)=O [KNS2-23-6, Ac-His-Arg-(pCF3)DPhe-Tic-NH2] (Ac-HR[dPhe(4-CF3)][Tic]-NH2): 5
CC(=O)N[C@@H](Cc1c[nH]cn1)C(=O)N[C@@H](CCCNC(=N)N)C(=O)N[C@H](Cc1ccc(O)cc1)C(=O)N1Cc2ccccc2C[C@H]1C(N)=O [KNS2-23-9, Ac-His-Arg-DTyr-Tic-NH2] (Ac-HR[dY][Tic]-NH2): 40

Shift focus to the following entry.
In: Which EC50 is reported for this compound? CC(=O)N[C@@H](Cc1c[nH]cn1)C(=O)N[C@@H](CCCNC(=N)N)C(=O)N[C@H](Cc1ccc(C)cc1)C(=O)N1Cc2ccccc2C[C@H]1C(N)=O [KNS2-23-7, Ac-His-Arg-(pMe)DPhe-Tic-NH2] (Ac-HR[dPhe(4-Me)][Tic]-NH2)
Out: 1

====

Target: mMC3R (Mus musculus, UniProt P33033)
Construct: expressed in transfected cells
Sequence (P33033 whole entry): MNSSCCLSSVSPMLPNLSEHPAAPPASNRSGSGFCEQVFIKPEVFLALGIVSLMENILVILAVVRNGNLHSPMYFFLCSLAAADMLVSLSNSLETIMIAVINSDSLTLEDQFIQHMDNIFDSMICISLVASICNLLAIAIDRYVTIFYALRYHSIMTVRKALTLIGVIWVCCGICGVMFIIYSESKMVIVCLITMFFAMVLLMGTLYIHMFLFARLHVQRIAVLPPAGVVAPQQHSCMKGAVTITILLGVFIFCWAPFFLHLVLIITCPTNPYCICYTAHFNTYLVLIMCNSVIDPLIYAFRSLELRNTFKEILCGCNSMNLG
Assay: β-galactosidase cAMP reporter assay, agonist pharmacology in HEK293 cells stably expressing mMC3R
Format: cell-based
Conditions: relative to maximal NDP-MSH signal
Non-standard residues stand in square brackets, D forms with d. Residues, ends and D or L forms follow the SMILES beside them. dPhe(4-tBu) = CC(C)(C)c1ccc(C[C@@H](N)C(=O)O)cc1; dPhe(4-CN) = N#Cc1ccc(C[C@@H](N)C(=O)O)cc1; Tic = O=C(O)[C@@H]1Cc2ccccc2CN1
MEASURED_ATTRIBUTE: mMC3R percent maximal stimulation relative to NDP-MSH (partial agonist) (% NDP)
The answer is to be given in % NDP; state only the numeric part.

CC(=O)N[C@@H](Cc1c[nH]cn1)C(=O)N[C@@H](CCCNC(=N)N)C(=O)N[C@H](Cc1ccc(C#N)cc1)C(=O)N1Cc2ccccc2C[C@H]1C(N)=O [KNS2-23-8, Ac-His-Arg-(pCN)DPhe-Tic-NH2] (Ac-HR[dPhe(4-CN)][Tic]-NH2): 75

In: Which mMC3R percent maximal stimulation relative to NDP-MSH (partial agonist) is reported for this molecule? CC(=O)N[C@@H](Cc1c[nH]cn1)C(=O)N[C@@H](CCCNC(=N)N)C(=O)N[C@H](Cc1ccccc1)C(=O)N1Cc2ccccc2C[C@H]1C(N)=O [KNS3-10, Ac-His-Arg-DPhe-Tic-NH2] (Ac-HR[dF][Tic]-NH2)
Out: 85

In: Which mMC3R percent maximal stimulation relative to NDP-MSH (partial agonist) is reported for this molecule? CC(=O)N[C@@H](Cc1c[nH]cn1)C(=O)N[C@@H](CCCNC(=N)N)C(=O)N[C@H](Cc1ccc(O)cc1)C(=O)N1Cc2ccccc2C[C@H]1C(N)=O [KNS2-23-9, Ac-His-Arg-DTyr-Tic-NH2] (Ac-HR[dY][Tic]-NH2)
Out: 85

In: Which mMC3R percent maximal stimulation relative to NDP-MSH (partial agonist) is reported for this molecule? CC(=O)N[C@@H](Cc1c[nH]cn1)C(=O)N[C@@H](CCCNC(=N)N)C(=O)N[C@H](Cc1ccc(C(C)(C)C)cc1)C(=O)N1Cc2ccccc2C[C@H]1C(N)=O [KNS2-23-3, Ac-His-Arg-(ptBu)DPhe-Tic-NH2] (Ac-HR[dPhe(4-tBu)][Tic]-NH2)
Out: 85

====

Known decreased agonist potency at the mMC1R compared to KNS2-22-4 of a selection of compounds
Target: mMC1R (Mus musculus, UniProt Q01727)
Construct: expressed in transfected cells
Experiment: AlphaScreen cAMP assay, agonist pharmacology in HEK293 cells stably expressing mMC1R
Assay type: cell-based
Settings: ratio of EC50 to KNS2-22-4
Non-standard residues stand in square brackets, D forms with d. Residues, ends and D or L forms follow the SMILES beside them. dPhe(4-tBu) = CC(C)(C)c1ccc(C[C@@H](N)C(=O)O)cc1; dPhe(3,4-Cl2) = N[C@H](Cc1ccc(Cl)c(Cl)c1)C(=O)O; dPhe(4-CF3) = N[C@H](Cc1ccc(C(F)(F)F)cc1)C(=O)O; Tic = O=C(O)[C@@H]1Cc2ccccc2CN1
The answer is to be given in fold; state only the numeric part.

Example cases with answers are listed next.
CC(=O)N[C@@H](Cc1c[nH]cn1)C(=O)N[C@@H](CCCNC(=N)N)C(=O)N[C@H](Cc1ccccc1)C(=O)N1Cc2ccccc2C[C@H]1C(N)=O [KNS3-10, Ac-His-Arg-DPhe-Tic-NH2] (Ac-HR[dF][Tic]-NH2): 6
CC(=O)N[C@@H](Cc1c[nH]cn1)C(=O)N[C@@H](CCCNC(=N)N)C(=O)N[C@H](Cc1ccc(C(C)(C)C)cc1)C(=O)N1Cc2ccccc2C[C@H]1C(N)=O [KNS2-23-3, Ac-His-Arg-(ptBu)DPhe-Tic-NH2] (Ac-HR[dPhe(4-tBu)][Tic]-NH2): 13
CC(=O)N[C@@H](Cc1c[nH]cn1)C(=O)N[C@@H](CCCNC(=N)N)C(=O)N[C@H](Cc1ccc(Cl)c(Cl)c1)C(=O)N1Cc2ccccc2C[C@H]1C(N)=O [KNS2-23-4, Ac-His-Arg-(3,4-diCl)DPhe-Tic-NH2] (Ac-HR[dPhe(3,4-Cl2)][Tic]-NH2): 7

In: Which decreased agonist potency at the mMC1R compared to KNS2-22-4 is reported for this compound? CC(=O)N[C@@H](Cc1c[nH]cn1)C(=O)N[C@@H](CCCNC(=N)N)C(=O)N[C@H](Cc1ccc(C(F)(F)F)cc1)C(=O)N1Cc2ccccc2C[C@H]1C(N)=O [KNS2-23-6, Ac-His-Arg-(pCF3)DPhe-Tic-NH2] (Ac-HR[dPhe(4-CF3)][Tic]-NH2)
Out: 7

====

Known decreased agonist potency at the mMC3R compared to KNS2-22-4 of a selection of compounds
Target: mMC3R (Mus musculus, UniProt P33033)
Construct: expressed in transfected cells
Assay: β-galactosidase cAMP reporter assay, agonist pharmacology in HEK293 cells stably expressing mMC3R
Assay type: cell-based
Conditions: ratio of EC50 to KNS2-22-4
Method: Peptides were synthesized manually with microwave irradiation using standard Fmoc synthesis techniques and purified using semi-preparative reverse-phase high-pressure liquid-chromatography (RP-HPLC). […] Agonist pharmacology was measured at the mMC3R, mMC4R, and mMC5R using a colorimetric β-galactosidase assay that measures cAMP production. […] The peptide ligands were assessed for pharmacological activity at the mMC3R, mMC4R, and mMC5R using a β-galactosidase assay. […]
Non-standard residues stand in square brackets, D forms with d. Residues, ends and D or L forms follow the SMILES beside them. dPhe(3,4-Cl2) = N[C@H](Cc1ccc(Cl)c(Cl)c1)C(=O)O; dPhe(4-CF3) = N[C@H](Cc1ccc(C(F)(F)F)cc1)C(=O)O; dPhe(4-Me) = Cc1ccc(C[C@@H](N)C(=O)O)cc1; dPhe(4-F) = N[C@H](Cc1ccc(F)cc1)C(=O)O; Tic = O=C(O)[C@@H]1Cc2ccccc2CN1
The answer is to be given in fold; state only the numeric part.

CC(=O)N[C@@H](Cc1c[nH]cn1)C(=O)N[C@@H](CCCNC(=N)N)C(=O)N[C@H](Cc1ccc(F)cc1)C(=O)N1Cc2ccccc2C[C@H]1C(N)=O [KNS2-22-2, Ac-His-Arg-(pF)DPhe-Tic-NH2] (Ac-HR[dPhe(4-F)][Tic]-NH2): 30
CC(=O)N[C@@H](Cc1c[nH]cn1)C(=O)N[C@@H](CCCNC(=N)N)C(=O)N[C@H](Cc1ccccc1)C(=O)N1Cc2ccccc2C[C@H]1C(N)=O [KNS3-10, Ac-His-Arg-DPhe-Tic-NH2] (Ac-HR[dF][Tic]-NH2): 70
CC(=O)N[C@@H](Cc1c[nH]cn1)C(=O)N[C@@H](CCCNC(=N)N)C(=O)N[C@H](Cc1ccc(Cl)c(Cl)c1)C(=O)N1Cc2ccccc2C[C@H]1C(N)=O [KNS2-23-4, Ac-His-Arg-(3,4-diCl)DPhe-Tic-NH2] (Ac-HR[dPhe(3,4-Cl2)][Tic]-NH2): 30
CC(=O)N[C@@H](Cc1c[nH]cn1)C(=O)N[C@@H](CCCNC(=N)N)C(=O)N[C@H](Cc1ccc(C)cc1)C(=O)N1Cc2ccccc2C[C@H]1C(N)=O [KNS2-23-7, Ac-His-Arg-(pMe)DPhe-Tic-NH2] (Ac-HR[dPhe(4-Me)][Tic]-NH2): 8

Shift focus to the following entry.
In: Which decreased agonist potency at the mMC3R compared to KNS2-22-4 is reported for this compound? CC(=O)N[C@@H](Cc1c[nH]cn1)C(=O)N[C@@H](CCCNC(=N)N)C(=O)N[C@H](Cc1ccc(C(F)(F)F)cc1)C(=O)N1Cc2ccccc2C[C@H]1C(N)=O [KNS2-23-6, Ac-His-Arg-(pCF3)DPhe-Tic-NH2] (Ac-HR[dPhe(4-CF3)][Tic]-NH2)
Out: 7

The values you see were collected from paper PMC6515519.
